Target chain: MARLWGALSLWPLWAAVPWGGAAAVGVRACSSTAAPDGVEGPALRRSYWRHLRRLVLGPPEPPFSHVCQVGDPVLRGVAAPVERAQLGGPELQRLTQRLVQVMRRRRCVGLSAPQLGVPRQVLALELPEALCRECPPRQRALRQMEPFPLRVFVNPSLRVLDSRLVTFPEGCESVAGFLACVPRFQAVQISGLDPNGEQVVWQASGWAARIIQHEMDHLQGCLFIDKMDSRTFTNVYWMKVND
pIC50: −log10 of the molar value.
Label rule, in plain words: pIC50 of 5 and up is class 1, under 5 is class 0.

> print(dat)
                                smiles.repr  label.class
1  COc1ccc(C(=O)c2coc3c2C(=O)C(=O)C=C3Cl)cc1      class 0

Query string: Check if pIC50 >= 5 (inclusive). Item: `COc1ccc(C(=O)c2coc3c2C(=O)C(=O)C=C3)cc1`
Result string: class 0

Query string: Check if pIC50 >= 5 (inclusive). Item: `COc1cc(C(=O)c2coc3c2C(=O)C(=O)C(Cl)=C3Cl)cc(OC)c1OC`
Result string: class 0

Query string: Check if pIC50 >= 5 (inclusive). Item: `COc1ccc(C(=O)c2coc3c2C(=O)C(=O)C(Cl)=C3Cl)cc1OC`
Result string: class 1

Query string: Check if pIC50 >= 5 (inclusive). Item: `COc1ccc(C(=O)c2coc3c2C(=O)C(=O)C(Br)=C3Br)cc1`
Result string: class 0

Query string: Check if pIC50 >= 5 (inclusive). Item: `COc1ccc(C(=O)c2coc3c2C(=O)C(=O)C=C3Br)cc1`
Result string: class 0
